# key: entry, value: pIC50
measured_on: T1, N-terminally FLAG-tagged mouse Ang2 (HEK293T conditioned medium) (mouse, UniProt O35608 19-496)
T1 construct: may be a nucleotide entry; also called mAng2; FLAG-mAng2
T1 sequence: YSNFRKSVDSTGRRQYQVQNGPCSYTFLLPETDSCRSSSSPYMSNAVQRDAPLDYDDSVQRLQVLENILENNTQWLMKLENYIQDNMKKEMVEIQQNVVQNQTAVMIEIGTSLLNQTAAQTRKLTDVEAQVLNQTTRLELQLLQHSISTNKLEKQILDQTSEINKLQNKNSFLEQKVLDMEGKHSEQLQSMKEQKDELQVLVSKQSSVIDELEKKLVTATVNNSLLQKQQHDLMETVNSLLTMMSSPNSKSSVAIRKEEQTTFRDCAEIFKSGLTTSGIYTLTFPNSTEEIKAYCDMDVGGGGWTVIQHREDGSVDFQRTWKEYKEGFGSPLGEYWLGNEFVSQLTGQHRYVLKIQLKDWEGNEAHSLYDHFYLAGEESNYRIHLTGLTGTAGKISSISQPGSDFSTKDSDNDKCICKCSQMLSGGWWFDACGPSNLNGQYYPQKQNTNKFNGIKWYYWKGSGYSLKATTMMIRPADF
procedure_details: competition ELISA, FLAG-mAng2 on coated mTie2-Fc
Formally, pIC50 is defined as -log10 of the concentration c, with c in mol/L.

Below are worked cases with known answers.
binder | pIC50
VHH 37F02 (VHH, also called 037F02; not shown: C-terminal c-myc tag and His6 tag) VHH: EVQLVESGGGLVQPGGSLRLSCAASGFALDYYAIGWFRQAPGKEREGVSCISSSDGITYYVDSVKGRFTISRDNAKNTVYLQMNSLKPEDTAVYYCATDSGGYIDYDCMGLGYDYWGQGTQVTVSS | 10.05
VHH 7G08 (VHH, also called 007G08; not shown: C-terminal c-myc tag and His6 tag) VHH: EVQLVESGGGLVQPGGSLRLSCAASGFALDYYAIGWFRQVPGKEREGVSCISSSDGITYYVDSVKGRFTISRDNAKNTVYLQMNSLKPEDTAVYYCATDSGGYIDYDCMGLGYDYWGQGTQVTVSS | 10.15
VHH 28D10 (VHH, also called 028D10; not shown: C-terminal c-myc tag and His6 tag) VHH: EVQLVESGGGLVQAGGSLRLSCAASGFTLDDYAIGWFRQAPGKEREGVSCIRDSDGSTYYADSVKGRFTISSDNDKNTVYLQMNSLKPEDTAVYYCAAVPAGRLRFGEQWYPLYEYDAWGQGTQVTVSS | 8.21
VHH 24B05 (VHH, also called 024B05; not shown: C-terminal c-myc tag and His6 tag) VHH: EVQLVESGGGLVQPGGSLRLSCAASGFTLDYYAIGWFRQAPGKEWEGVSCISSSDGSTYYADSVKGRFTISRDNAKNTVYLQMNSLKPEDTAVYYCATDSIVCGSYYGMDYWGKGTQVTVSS | 8.96
VHH 10H02 (VHH, also called 010H02; not shown: C-terminal c-myc tag and His6 tag) VHH: EVQLVESGGGSVQAGGSLRLSCAASGFTFDDYAIGWFRQAPGKEREGVSCISSSDGSTNYADSVKGRFTISSDTAKNTVYLQMNSLKPEDTAVYYCTAVPATRRTPQMVDANMCWLAEYEYDYWGQGTQVTVSS | 7.67
VHH 1D01 (VHH, also called 001D01; not shown: C-terminal c-myc tag and His6 tag) VHH: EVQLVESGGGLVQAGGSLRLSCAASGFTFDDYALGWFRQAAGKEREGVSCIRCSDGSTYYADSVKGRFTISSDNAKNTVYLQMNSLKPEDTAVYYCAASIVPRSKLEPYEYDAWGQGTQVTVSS | 8.00
VHH 32H10 (VHH, also called 032H10; not shown: C-terminal c-myc tag and His6 tag) VHH: EVQLVESGGGLVQAGGSLRLSCAASGFDFEDYDMGWFRQAPGKEREGVSYISSSDGSTYYTDSVKGRFTISSDNAKNTVYLQMNSLIPEDTAVYYCAARPWTRRVYGSSWLARSLDEYEYDYWGQGTQVTVSS | 7.89
VHH 11B07 (VHH, also called 011B07; not shown: C-terminal c-myc tag and His6 tag) VHH: EVQLVESGGGLVQVGDSLRLSCAASGRTFSTYLMVGWFRQAPGKEREFAAGIWSSGDTAYADSVRGRFTISRDNAKNTVYLQMNSLKTEDTAVYYCAGSYDGNYYIPGFYKDWGQGTQVTVSS | 7.40
VHH 13A02 (VHH, also called 013A02; not shown: C-terminal c-myc tag and His6 tag) VHH: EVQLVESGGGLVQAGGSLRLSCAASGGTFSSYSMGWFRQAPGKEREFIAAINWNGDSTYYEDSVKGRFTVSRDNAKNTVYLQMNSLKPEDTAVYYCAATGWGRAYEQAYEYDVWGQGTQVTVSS | 7.58

Consider the record given below.
Value of pIC50 reported for the binder VHH 37A09 (VHH, also called 037A09; not shown: C-terminal c-myc tag and His6 tag) VHH: EVQLMESGGGLVQPGGSLRLSCAASGFALDYYAIGWFRQVPGKEREGVSCISSSDGITYYVDSVKGRFTISRDNAKNTVYLQMNSLKPGDTAVYYCATDSGGYIDYDCMGLGYDYWGQGTQVTVSS is 10.00
